Reference source: ChEMBL document CHEMBL1150767

Test summary: Binding affinity to mu dimeric heme in aqueous solution at pH 7.5

[
  {
    "Molecule": "CCN(CC)CCCCNc1ccnc2cc(Cl)ccc12",
    "logKA": 5.2
  },
  {
    "Molecule": "CCN(CC)CCCCOc1ccnc2cc(Cl)ccc12",
    "logKA": 5
  },
  {
    "Molecule": "CCN(CC)CCCCSc1ccnc2cc(Cl)ccc12",
    "logKA": 4.9
  },
  {
    "Molecule": "CCN(CC)CCCC(CCCN(CC)CC)Oc1ccnc2cc(Cl)ccc12",
    "logKA": 4.5
  }
]

* * *

Test summary: Binding affinity to mu dimeric heme in aqueous solution at pH 7.5
Property measured: Ka (×10⁴ /M)

[
  {
    "Molecule": "CCN(CC)CCCCSc1ccnc2cc(Cl)ccc12",
    "Property measured": "Ka",
    "Unit of measurement": "×10⁴ /M",
    "Result value": 8.22
  },
  {
    "Molecule": "CCN(CC)CCCCOc1ccnc2cc(Cl)ccc12",
    "Property measured": "Ka",
    "Unit of measurement": "×10⁴ /M",
    "Result value": 8.82
  },
  {
    "Molecule": "CCN(CC)CCCC(CCCN(CC)CC)Oc1ccnc2cc(Cl)ccc12",
    "Property measured": "Ka",
    "Unit of measurement": "×10⁴ /M",
    "Result value": 3.47
  }
]
